Entry source: ChEMBL document CHEMBL4152191

Answer each item with its documented Ki.
# SYSTEM_NAME: Adenosine receptor A1 (Homo sapiens, UniProt P30542)
# Sequence (P30542 whole entry): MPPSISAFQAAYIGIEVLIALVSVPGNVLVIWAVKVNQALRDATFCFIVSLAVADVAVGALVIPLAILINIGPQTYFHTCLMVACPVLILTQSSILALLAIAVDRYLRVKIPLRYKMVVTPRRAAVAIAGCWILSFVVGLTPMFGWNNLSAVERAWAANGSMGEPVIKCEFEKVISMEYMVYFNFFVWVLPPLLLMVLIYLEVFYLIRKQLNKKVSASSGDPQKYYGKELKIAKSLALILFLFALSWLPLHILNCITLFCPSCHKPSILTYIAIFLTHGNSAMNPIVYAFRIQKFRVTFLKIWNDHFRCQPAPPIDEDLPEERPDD
# ASSAY_DETAILS: Displacement of [3H]CCPA from recombinant human adenosine A1 receptor transfected in CHO cell membranes after 3 hrs by microbeta scintillation counting analysis
Give bare numbers, in nM.

Consider the worked cases shown below.
COMPOUND: Cn1c(-c2cccnc2)nc2c(NC3CCCC3)ncnc21
UNIT_STRING: nM
Ki: 242

COMPOUND: Cc1cccc(-c2nc3c(NC4CCCC4)ncnc3n2C)c1
UNIT_STRING: nM
Ki: 6.2

COMPOUND: Cn1c(-c2ccccc2)nc2c(NC3CCC3)ncnc21
UNIT_STRING: nM
Ki: 3.2

COMPOUND: CCn1c(-c2ccccc2)nc2c(N)ncnc21
UNIT_STRING: nM
Ki: 31

COMPOUND: CCCn1c(-c2ccccc2)nc2c(N)ncnc21
UNIT_STRING: nM
Ki: 101

COMPOUND: Cn1c(-c2ccccc2)nc2c(N)ncnc21
UNIT_STRING: nM
Ki: 23

COMPOUND: COc1ccc(-c2nc3c(NC4CCCC4)ncnc3n2C)cc1
UNIT_STRING: nM
Ki: 75

COMPOUND: CCCn1c(-c2ccccc2)nc2c(NC3CCC3)ncnc21
UNIT_STRING: nM
Ki: 15

COMPOUND: Cn1c(-c2ccccc2Cl)nc2c(NC3CCCC3)ncnc21
UNIT_STRING: nM
Ki: 37

COMPOUND: Cn1c(-c2ccc(O)cc2)nc2c(NC3CCCC3)ncnc21
UNIT_STRING: nM
Ki: 17

// for each molecule below, give its Ki
1. CCCn1c(-c2ccccc2)nc2c(NC3CCCCC3)ncnc21
2. CCn1c(-c2ccccc2)nc2c(NC3CCC3)ncnc21

Response:
1: 27; 2: 6

* * *

# Organism: Homo sapiens
# ASSAY_DETAILS: Selectivity index, ratio of Ki for recombinant human adenosine A2B receptor to Ki for recombinant human adenosine A1 receptor
Answer each item with its documented Ratio Ki.
One number for each entry.

Consider the worked cases shown below.
COMPOUND: CCn1c(-c2ccccc2)nc2c(NC3CCCC3)ncnc21
Ratio Ki: 1480
//
COMPOUND: CCCn1c(-c2ccccc2)nc2c(NC3CCCC3)ncnc21
Ratio Ki: 343
//
COMPOUND: CCn1c(-c2ccccc2)nc2c(NC3CCOC3)ncnc21 (stereo not drawn)
Ratio Ki: 1150
//
COMPOUND: Cn1c(-c2cccc(Cl)c2)nc2c(NC3CCCC3)ncnc21
Ratio Ki: 389
//
COMPOUND: CCCn1c(-c2ccccc2)nc2c(N)ncnc21
Ratio Ki: 10

// below: Ratio Ki requested for another compound
Prompt: Reported Ratio Ki, compound `CCn1c(-c2ccccc2)nc2c(N)ncnc21` : ____
Response: 97

* * *

Answer each item with its documented Ratio Ki.
# Organism: Homo sapiens
# ASSAY_DETAILS: Selectivity index, ratio of Ki for recombinant human adenosine A2B receptor to Ki for recombinant human adenosine A1 receptor
Give bare numbers.

MOLECULE: CCCn1c(-c2ccccc2)nc2c(NC3CCOC3)ncnc21 (configuration not stated)
Ratio Ki: 363

// for each molecule below, give its Ratio Ki
1. CCn1c(-c2ccccc2)nc2c(NC3CCC3)ncnc21
2. Cc1cccc(-c2nc3c(NC4CCCC4)ncnc3n2C)c1
3. CCCn1c(-c2ccccc2)nc2c(NC3CCC3)ncnc21
4. Cn1c(-c2ccccc2)nc2c(NC3CCOC3)ncnc21 (configuration not stated)
5. Cn1c(-c2ccccc2)nc2c(NC3CCC3)ncnc21

Response:
[240, 973, 52, 1660, 1170]
